System: NCI-H23 lung
protocolText: NCI tumour cell line growth inhibition, 48 h
measuredMetric: TGI

[[record]]
molecule = "c1ccc(CNc2nc(Nc3ccccc3)nc3ccccc23)cc1"
experimentalsystem = "NCI-H23 lung"
assayvalue = "9.25 µM"

[[record]]
molecule = "Cc1ccccc1-n1c(C)nc(-c2ccccc2)cc1=O"
experimentalsystem = "NCI-H23 lung"
assayvalue = "> 100 µM"

[[record]]
molecule = "CC(CCCOC(c1ccccc1)(c1ccccc1)c1ccccc1)OC(=O)Nc1ccccc1 (stereo unspecified)"
experimentalsystem = "NCI-H23 lung"
assayvalue = "21.7 µM"

[[record]]
molecule = "COc1ccc2c(c1OC)C(=O)c1cnccc1C2=O"
experimentalsystem = "NCI-H23 lung"
assayvalue = "> 100 µM"

[[record]]
molecule = "O=C(/C=C(\\O)c1ccccc1)c1cc(-c2ccccc2)n(-c2ccccc2)n1"
experimentalsystem = "NCI-H23 lung"
assayvalue = "> 100 µM"


Continue with the molecule presented below.
Endpoint output: TGI of `ClCc1ccc(Cn2cnc3c(Cl)nc(Cl)nc32)cc1` . Value?
23.2 µM
